Each recorded value in this set is attributed to ChEMBL document CHEMBL5620345.

Provide the reported MIC of each item.
System: Escherichia coli
Experiment: Antibacterial activity against Escherichia coli BAA2452 expressing blaNDM-1 clinical isolates assessed as meropenem MIC incubated for 16 to 18 hrs by broth microdilution method; also: test concentration or dose not given here
Format: functional
Settings: time 16-18 hrs
Answers are plain numbers, in µg/mL.

Illustrative cases are given below, each with its answer.
Which value of MIC has been reported for `NCCOc1ccc(-c2cn(-c3cccc(C(=O)O)c3C(=O)O)nn2)cc1` in the records?
64

Moving on to `Nc1ccccc1-c1cn(-c2cccc(CP(=O)(O)O)c2)nn1`
32

Now consider Nc1cccc(-c2cn(-c3cccc(C(c4ccc(Br)cc4)P(=O)(O)O)c3)nn2)c1 (stereo not given) and answer again.
16

Here is the next compound: Nc1cccc(-c2cn(-c3cccc(C(c4ccc(-c5ccc(Br)cc5)cc4)P(=O)(O)O)c3)nn2)c1 (stereo not given)
8

Continuing:
Fill in: MIC of Cc1ccc(-c2ccc(C(c3cccc(-n4cc(-c5cccc(N)c5)nn4)c3)P(=O)(O)O)cc2)cc1 (stereo not given) is ___
16
